experimental.target: HIV-1 RT-associated RDDP activity, V108A RT (Human immunodeficiency virus type 1 group M subtype B, UniProt P04585, V695A)
Construct: The 1:1 ration between the p66/p51 subunits was also verified
test.name: biochemical
measured.parameter: IC50 (µM)
Answer format: numeric, µM implied, no suffix.

Lookup: Which IC50 reading was recorded for the molecule N#Cc1ccc(-c2csc(NN=C3C(=O)Nc4ccccc43)n2)cc1 [RMNC6] ?
Found: 33

----------
experimental.target: HIV-1 RT-associated RDDP activity, A502F RT (Human immunodeficiency virus type 1 group M subtype B, UniProt P04585, A1089F)
Construct: The 1:1 ration between the p66/p51 subunits was also verified
test.name: biochemical
measured.parameter: IC50 (µM)
Answer format: numeric, µM implied, no suffix.

Lookup: Which IC50 reading was recorded for the compound N#Cc1ccc(-c2csc(NN=C3C(=O)Nc4ccccc43)n2)cc1 ?
Found: 17.1
